# assay-protocol: xn = mol fraction of the nth substance listed, in the solute-free solvent
# experimental-setup: 288.15 K; x2 = 0.6101
property: solubility (g/100 g solution)

> print(dat)
                                   molecule  readout.number
1          O=[N+]([O-])c1cc[nH]n1 + CCO + O            3.06
2  COC(=O)C1=C(C)NC(C)=C(C(=O)OCC(C)C)C1c1ccccc1[N+](=O)[O-] (centres undefined) + CCO + O            3.38

(A) CS(=O)(=O)c1ccc(C(O)C(CF)NC(=O)C(Cl)Cl)cc1 (centres undefined) + CCO + O
(B) CC(=O)Nc1ccc(OC(=O)c2ccccc2OC(C)=O)cc1 + CCO + O
Query string: Endpoint returns whichever of A and B has the numerically higher solubility (g/100 g solution). The response must carry the label of the picked entry.
Result string: A

###

# assay-protocol: xn = mol fraction of the nth substance listed, in the solute-free solvent
# experimental-setup: 288.15 K; x2 = 0.4117
property: solubility (g/100 g solution)

> print(dat)
                            compound  readout.number
1  O=[N+]([O-])c1cc[nH]n1 + CCCO + O            2.44

(I) CS(=O)(=O)c1ccc(C(O)C(CF)NC(=O)C(Cl)Cl)cc1 (centres undefined) + CC(C)O + O
(II) COC(=O)C1=C(C)NC(C)=C(C(=O)OCC(C)C)C1c1ccccc1[N+](=O)[O-] (centres undefined) + CCCO + O
(III) CC(=O)Nc1ccc(OC(=O)c2ccccc2OC(C)=O)cc1 + CC(C)O + O
Query string: Reorder the items by solubility (g/100 g solution), least to greatest. Present the labels in the sequence the task asks for.
Result string: III, I, II
(III: 0.109, I: 0.516, II: 3.37)

###

# assay-protocol: xn = mol fraction of the nth substance listed, in the solute-free solvent
# experimental-setup: 313.15 K; x2 = 0.2068
property: solubility (g/100 g solution)

Solved entries:
> print(dat)
                                   molecule                       property  readout.number
1  COC(=O)C1=C(C)NC(C)=C(C(=O)OCC(C)C)C1c1ccccc1[N+](=O)[O-] (centres undefined) + CCO + O  solubility (g/100 g solution)            4.74
2          O=[N+]([O-])c1cc[nH]n1 + CCO + O  solubility (g/100 g solution)            1.87

(a) CC(=O)Nc1ccc(OC(=O)c2ccccc2OC(C)=O)cc1 + CCO + O
(b) CS(=O)(=O)c1ccc(C(O)C(CF)NC(=O)C(Cl)Cl)cc1 (centres undefined) + CCO + O
Query string: // compare: a vs b , metric solubility (g/100 g solution), want the smaller The response must carry the label of the picked entry.
Result string: a

###

# assay-protocol: xn = mol fraction of the nth substance listed, in the solute-free solvent
# experimental-setup: 298.15 K; x2 = 0.5
property: solubility (g/100 g solution)

Solved entries:
> print(dat)
                                   compound  readout.number
1  CN1CCN(C(=O)OC2c3nccnc3C(=O)N2c2ccc(Cl)cn2)CC1 (stereo not given) + C1CCOC1 + O            1.83
2  CCCCN1CCCCC1C(=O)Nc1c(C)cccc1C.Cl.O (stereo not given) + CCO + O            3.22

(I) CCOC(=O)C1=CC2(CC)CCCN3CCc4c(n1c1ccccc41)C32 (stereo not given) + CCO + O
(II) CCCCN1CCCCC1C(=O)Nc1c(C)cccc1C.Cl.O (stereo not given) + CO + O
Query string: Endpoint returns whichever of I and II has the numerically higher solubility (g/100 g solution). The response must carry the label of the picked entry.
Result string: II
(II: 4.96, I: 0.37)

###

# assay-protocol: xn = mol fraction of the nth substance listed, in the solute-free solvent
# experimental-setup: 318.15 K; x2 = 0.08908
property: solubility (g/100 g solution)

Solved entries:
> print(dat)
                                   compound  readout.number
1  COC(=O)C1=C(C)NC(C)=C(C(=O)OCC(C)C)C1c1ccccc1[N+](=O)[O-] (centres undefined) + CCO + O            1.99
2          O=[N+]([O-])c1cc[nH]n1 + CCO + O            1.44

(a) CC(=O)Nc1ccc(OC(=O)c2ccccc2OC(C)=O)cc1 + CCO + O
(b) CS(=O)(=O)c1ccc(C(O)C(CF)NC(=O)C(Cl)Cl)cc1 (centres undefined) + CCO + O
Query string: Endpoint returns whichever of a and b has the numerically higher solubility (g/100 g solution). The response must carry the label of the picked entry.
Result string: b

###

# assay-protocol: xn = mol fraction of the nth substance listed, in the solute-free solvent
# experimental-setup: 288.15 K; x2 = 0.6
property: solubility (g/100 g solution)

> print(dat)
                                   compound                       property  readout.number
1  CC1(C)SC2C(NC(=O)C(NC(=O)N3CCNC3=O)c3ccccc3)C(=O)N2C1C(=O)O (configuration not stated) + CO + CC(C)O  solubility (g/100 g solution)           0.255
2    O=c1[nH]cc(F)c(=O)[nH]1 + CO + C1CCOC1  solubility (g/100 g solution)           0.317
3  CN1CCN(C(=O)OC2c3nccnc3C(=O)N2c2ccc(Cl)cn2)CC1 (configuration not stated) + CC#N + O  solubility (g/100 g solution)            2.78
4  CCOC(=O)C1=CC2(CC)CCCN3CCc4c(n1c1ccccc41)C32 (configuration not stated) + CCO + O  solubility (g/100 g solution)           0.331
5                 O=c1ccc2ccccc2o1 + CO + O  solubility (g/100 g solution)            5.98
6  CN1CCN(C(=O)OC2c3nccnc3C(=O)N2c2ccc(Cl)cn2)CC1 (configuration not stated) + CCO + O  solubility (g/100 g solution)           0.527

(P) O=C(CC(=O)c1ccccc1)c1ccccc1 + CC(C)O + O
(Q) O=C(CC(=O)c1ccccc1)c1ccccc1 + CO + O
Query string: Endpoint returns whichever of P and Q has the numerically higher solubility (g/100 g solution). The response must carry the label of the picked entry.
Result string: P

###

# assay-protocol: xn = mol fraction of the nth substance listed, in the solute-free solvent
# experimental-setup: 308.15 K; x2 = 0.9
property: solubility (g/100 g solution)

Solved entries:
> print(dat)
                                   molecule  readout.number
1  CN1CCN(C(=O)OC2c3nccnc3C(=O)N2c2ccc(Cl)cn2)CC1 (configuration not stated) + C1CCOC1 + O            6.18
2                 O=c1ccc2ccccc2o1 + CO + O            50.3

(1) CCCCN1CCCCC1C(=O)Nc1c(C)cccc1C.Cl.O (configuration not stated) + CO + O
(2) O=c1[nH]cc(F)c(=O)[nH]1 + CO + C1CCOC1
(3) CCCCN1CCCCC1C(=O)Nc1c(C)cccc1C.Cl.O (configuration not stated) + CCO + O
Query string: Arrange by solubility (g/100 g solution), high to low. Present the labels in the sequence the task asks for.
Result string: 1, 3, 2
(1: 16, 3: 7.26, 2: 1.25)

###

# assay-protocol: xn = mol fraction of the nth substance listed, in the solute-free solvent
# experimental-setup: 308.15 K; x2 = 0.6
property: solubility (g/100 g solution)

Solved entries:
> print(dat)
                                   compound  readout.number
1  CN1CCN(C(=O)OC2c3nccnc3C(=O)N2c2ccc(Cl)cn2)CC1 (stereo not given) + CC#N + O            4.41
2                 O=c1ccc2ccccc2o1 + CO + O            38.3
3  CCCCN1CCCCC1C(=O)Nc1c(C)cccc1C.Cl.O (stereo not given) + CO + O            10.9
4  CCCCN1CCCCC1C(=O)Nc1c(C)cccc1C.Cl.O (stereo not given) + CCO + O            6.22
5     O=C(CC(=O)c1ccccc1)c1ccccc1 + CCO + O            2.12

(1) CC1(C)SC2C(NC(=O)C(NC(=O)N3CCNC3=O)c3ccccc3)C(=O)N2C1C(=O)O (stereo not given) + CO + CC(C)O
(2) O=C(CC(=O)c1ccccc1)c1ccccc1 + CC(C)O + O
Query string: // compare: 1 vs 2 , metric solubility (g/100 g solution), want the smaller The response must carry the label of the picked entry.
Result string: 1
